system: Fusarium oxysporum; assay: Antifungal activity against Fusarium oxysporum assessed as inhibition of mycelia growth at 800 ppm after 1 week by filter paper method relative to control; assay type: functional; conditions: 168 h, read-out: GI
Overview of reported inhibition of growth at 800 ppm across a group of compounds:
Just so you know, I need the unit written after the number.

Take a look at these entries with their results.
[[record]]
structurestring = "C[C@@H]1CC[C@H]2[C@@H](C)C(=O)O[C@@H]3O[C@@]4(C)CC[C@@H]1[C@]32OO4"
studytarget = "Fusarium oxysporum"
measvalue = "77.2%"

[[record]]
structurestring = "C#CCCO[C@H]1O[C@@H]2O[C@@]3(C)CC[C@H]4[C@H](C)CC[C@@H]([C@H]1C)[C@@]24OO3"
studytarget = "Fusarium oxysporum"
measvalue = "76.8%"

[[record]]
structurestring = "C[C@H]1[C@@H](OCCC#Cc2ccc(-c3cccc(C(F)(F)F)c3)cc2)O[C@@H]2O[C@@]3(C)CC[C@H]4[C@H](C)CC[C@@H]1[C@@]24OO3"
studytarget = "Fusarium oxysporum"
measvalue = "69%"

[[record]]
structurestring = "C[C@H]1[C@@H](OCC#Cc2ccc(F)nc2)O[C@@H]2O[C@@]3(C)CC[C@H]4[C@H](C)CC[C@@H]1[C@@]24OO3"
studytarget = "Fusarium oxysporum"
measvalue = "62.5%"

[[record]]
structurestring = "C[C@H]1[C@@H](OCCC#Cc2ccc(-c3ccc(F)cc3)cc2)O[C@@H]2O[C@@]3(C)CC[C@H]4[C@H](C)CC[C@@H]1[C@@]24OO3"
studytarget = "Fusarium oxysporum"
measvalue = "71%"


Consider C[C@H]1[C@@H](OCC#Cc2cccc(F)c2)O[C@@H]2O[C@@]3(C)CC[C@H]4[C@H](C)CC[C@@H]1[C@@]24OO3 . Its measured inhibition of growth at 800 ppm is 64%

* * *

Overview of reported log10 of IC50 across a group of compounds:
system: HeLa; assay: Cytotoxicity against human HeLa cells measured at 48 hrs by MTT assay; assay type: functional, cell-based
All values: log10 IC50 [µM].

[[record]]
compound = "C[C@H]1[C@@H](OCC#Cc2ccc(F)cc2)O[C@@H]2O[C@@]3(C)CC[C@H]4[C@H](C)CC[C@@H]1[C@@]24OO3"
measvalue = 1.42

[[record]]
compound = "C[C@H]1[C@@H](OCCC#Cc2ccc(-c3ccc(F)cc3)cc2)O[C@@H]2O[C@@]3(C)CC[C@H]4[C@H](C)CC[C@@H]1[C@@]24OO3"
measvalue = 1.12

[[record]]
compound = "C[C@H]1[C@@H](OCCC#Cc2ccc(-c3ccc(F)cc3)s2)O[C@@H]2O[C@@]3(C)CC[C@H]4[C@H](C)CC[C@@H]1[C@@]24OO3"
measvalue = 1.56

[[record]]
compound = "C[C@H]1[C@@H](OCCC#Cc2ccc(F)nc2)O[C@@H]2O[C@@]3(C)CC[C@H]4[C@H](C)CC[C@@H]1[C@@]24OO3"
measvalue = 1.32

[[record]]
compound = "C[C@H]1[C@@H](OCC#Cc2cccc(F)c2)O[C@@H]2O[C@@]3(C)CC[C@H]4[C@H](C)CC[C@@H]1[C@@]24OO3"
measvalue = 1.15


log10 of IC50 for HeLa with input C[C@@H]1CC[C@H]2[C@@H](C)C(=O)O[C@@H]3O[C@@]4(C)CC[C@@H]1[C@]32OO4 [ARTEMISININ] equals 2.69

log10 of IC50 for HeLa with input C[C@H]1[C@@H](OCC#Cc2ccccc2F)O[C@@H]2O[C@@]3(C)CC[C@H]4[C@H](C)CC[C@@H]1[C@@]24OO3 equals 2.14

log10 of IC50 for HeLa with input C[C@H]1[C@@H](OCCC#Cc2cccc(-c3ccc(F)cc3)c2)O[C@@H]2O[C@@]3(C)CC[C@H]4[C@H](C)CC[C@@H]1[C@@]24OO3 equals 2.05

Ref: ChEMBL document CHEMBL3600327
